Values were extracted from PubChem BioAssay.

Give measured inhibition for each item. Keep answers brief.
Target: L-lactate dehydrogenase (Plasmodium falciparum (isolate CDC / Honduras)) (UniProt Q27743)
Sequence (Q27743 whole entry, looked up): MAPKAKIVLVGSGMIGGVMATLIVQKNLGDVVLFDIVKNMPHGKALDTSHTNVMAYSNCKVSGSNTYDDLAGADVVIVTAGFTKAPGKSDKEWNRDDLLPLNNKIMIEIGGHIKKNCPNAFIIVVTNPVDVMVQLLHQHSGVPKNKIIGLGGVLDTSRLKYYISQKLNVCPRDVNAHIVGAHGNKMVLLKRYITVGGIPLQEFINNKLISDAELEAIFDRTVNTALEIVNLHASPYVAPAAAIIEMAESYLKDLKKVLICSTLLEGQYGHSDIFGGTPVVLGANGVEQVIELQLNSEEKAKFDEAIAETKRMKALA
Assay: PfLDH activity inhibition – cell lysate, 3D7 strain, counter-screen for P. falciparum growth inhibition project (AID 2304);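 further: 0% = vehicle and 100% = reference inhibitor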
Conditions: P. falciparum 3D7 crude extract, LDH APAD/NBT absorbance; at 2 µM; active compounds read high
Give the quantity in %, number only.

query: What value of inhibition has been recorded for this entry: O=C(Nc1ccc(N2CCCN(Cc3cccc(F)c3)CC2)cc1)c1ccc(F)cc1
result: 3

query: What value of inhibition has been recorded for this entry: Fc1ccc2nc(-c3cccc(-c4cccc(CN5CCN(c6cnccn6)CC5)c4)c3)[nH]c2c1
result: -2

query: What value of inhibition has been recorded for this entry: CCN(CC)CCn1c2ccccc2c2ccc(C(=O)Nc3ccc4sc(C)nc4c3)cc21
result: -5

query: What value of inhibition has been recorded for this entry: COc1ccc2nccc([C@@H](O)CN3CCC(NC(=O)/C=C/c4ccc(Cl)c(C(F)(F)F)c4)CC3)c2c1
result: -4

query: What value of inhibition has been recorded for this entry: O=C(Cc1cnc[nH]1)Nc1cccc(-c2ccc(-c3nc4ccc(F)cc4[nH]3)s2)c1
result: -12

query: What value of inhibition has been recorded for this entry: CCCN(CCCCCCNCCc1ccc(Cl)cc1)CCc1ccc(O)c(O)c1
result: -3

query: What value of inhibition has been recorded for this entry: CC(C)CCNC(=O)[C@@H]1[C@H]2C(=O)N(C3CCCCC3)C(=O)[C@H]2[C@H]2C=C[C@@H]3C(c4ccc(C(C)(C)C)cc4)=NO[C@@H]3N21
result: -2

query: What value of inhibition has been recorded for this entry: COc1ccc2nccc([C@@H](O)CN3CCC(NCc4cc5ccccc5[nH]4)CC3)c2n1
result: 3

query: What value of inhibition has been recorded for this entry: Cc1cccc(NC(=O)c2ccc(C(=O)NC3CCN(CC4CCCCC4)CC3)cc2)c1
result: -1
